- target: Hck (Homo sapiens, UniProt P08631)

{"columns": ["smiles.data", "target", "Ki (nM)"],
 "data": [
  ["COc1cc(/C=C/C(=O)C(=Cc2ccc(N(CCCl)CCCl)cc2)C(=O)/C=C/c2ccc(O)c(OC)c2)ccc1O", "Hck (Homo sapiens, UniProt P08631)", 70]
]}

---

- target: Src (Homo sapiens, UniProt P12931)
- Sequence (P12931 254-535 limits assumed): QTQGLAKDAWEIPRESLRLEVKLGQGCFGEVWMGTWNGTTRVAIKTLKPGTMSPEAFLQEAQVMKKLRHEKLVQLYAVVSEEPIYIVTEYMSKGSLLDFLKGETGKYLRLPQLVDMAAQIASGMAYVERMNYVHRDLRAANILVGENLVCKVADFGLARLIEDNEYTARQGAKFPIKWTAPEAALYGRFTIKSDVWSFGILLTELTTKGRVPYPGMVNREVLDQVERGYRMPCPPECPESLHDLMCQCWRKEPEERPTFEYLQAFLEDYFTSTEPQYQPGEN
pKi: −log10 of the molar value.

{"columns": ["smiles.data", "pKi"],
 "data": [
  ["COc1cc(/C=C/C(=O)C(=Cc2ccc(N(CCCl)CCCl)cc2)C(=O)/C=C/c2ccc(O)c(OC)c2)ccc1O", 6.34]
]}

---

- target: Hck (Homo sapiens)
pKd: −log10 of the molar value.

{"columns": ["molecule", "pKd"],
 "data": [
  ["COc1cc(/C=C/C(=O)C(=Cc2ccc(N(CCCl)CCCl)cc2)C(=O)/C=C/c2ccc(O)c(OC)c2)ccc1O [Compound 4]", 7.30]
]}

---

- target: DYRK2 (Homo sapiens)
- Sequence (Q92630 146-540): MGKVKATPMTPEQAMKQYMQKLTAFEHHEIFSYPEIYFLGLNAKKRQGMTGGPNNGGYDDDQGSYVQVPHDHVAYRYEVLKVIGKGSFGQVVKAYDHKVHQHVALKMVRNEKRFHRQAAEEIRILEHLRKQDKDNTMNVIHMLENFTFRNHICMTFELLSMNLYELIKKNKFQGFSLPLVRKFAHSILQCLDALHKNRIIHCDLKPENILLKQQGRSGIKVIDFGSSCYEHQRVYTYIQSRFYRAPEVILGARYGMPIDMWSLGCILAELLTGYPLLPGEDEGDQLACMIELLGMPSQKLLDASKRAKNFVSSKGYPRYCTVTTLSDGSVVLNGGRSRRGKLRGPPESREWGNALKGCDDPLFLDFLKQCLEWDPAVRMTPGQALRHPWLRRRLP
pKi: −log10 of the molar value.

{"columns": ["compound", "pKi"],
 "data": [
  ["COc1cc(/C=C/C(=O)CC(=O)/C=C/c2ccc(O)c(OC)c2)ccc1O [Compound 1, Curcumin, reference compound]", 8.22]
]}

---

- target: Abl Y253F (Homo sapiens, UniProt P00519, Y253F)
- Sequence (P00519 229-512 Y253F limits assumed): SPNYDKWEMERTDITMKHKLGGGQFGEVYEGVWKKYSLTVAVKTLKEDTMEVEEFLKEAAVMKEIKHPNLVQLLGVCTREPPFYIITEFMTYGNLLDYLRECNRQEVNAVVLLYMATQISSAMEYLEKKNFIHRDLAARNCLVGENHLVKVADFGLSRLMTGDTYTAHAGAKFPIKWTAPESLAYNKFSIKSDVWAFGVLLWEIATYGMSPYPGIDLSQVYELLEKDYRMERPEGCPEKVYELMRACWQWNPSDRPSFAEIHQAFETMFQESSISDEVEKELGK
- assay.overview: Stop-flow tryptophan fluorescence binding kinetics, Abl Y253F
pKd: −log10 of the molar value.
reported.metric: pKd

{"columns": ["smiles.data", "target", "measurement"],
 "data": [
  ["COc1cc(/C=C/C(=O)C(=Cc2ccc(N(CCCl)CCCl)cc2)C(=O)/C=C/c2ccc(O)c(OC)c2)ccc1O", "Abl Y253F (Homo sapiens, UniProt P00519, Y253F)", 5.89]
]}
